# target_or_system: T4 lysozyme L99A/M102Q (Enterobacteria phage T4, UniProt P00720, C54T/C97A/L99A/M102Q)
# Assay type: binding
property_name: ΔGb,exp (kcal/mol)
Field: numeric (kcal/mol). Do not append units.

// ΔGb,exp lookup, molecule = `Cc1ccccc1O` , result: -4.44

// ΔGb,exp lookup, molecule = `CCCc1ccccc1O` , result: -5.33

====

# target_or_system: T4 lysozyme L99A/M102Q (Enterobacteria phage T4, UniProt P00720, C54T/C97A/L99A/M102Q)
# Format: binding
# condition: free energy of binding by ITC at 10°C, pH 6.8; prospective set
Recorded measurements of ΔGb,exp, one per entry
Field: numeric (kcal/mol). Do not append units.

Examples with answers:
compound: O=[N+]([O-])c1cccs1
target_or_system: T4 lysozyme L99A/M102Q (Enterobacteria phage T4, UniProt P00720, C54T/C97A/L99A/M102Q)
ΔGb,exp (kcal/mol): -4.85
--
compound: c1cc2c([nH]1)CCCC2 [4,5,6,7-tetrahydroindole]
target_or_system: T4 lysozyme L99A/M102Q (Enterobacteria phage T4, UniProt P00720, C54T/C97A/L99A/M102Q)
ΔGb,exp (kcal/mol): -4.61
--
compound: CC(=O)OCc1ccccc1 [benzyl acetate]
target_or_system: T4 lysozyme L99A/M102Q (Enterobacteria phage T4, UniProt P00720, C54T/C97A/L99A/M102Q)
ΔGb,exp (kcal/mol): -4.48

Then this compound:
// ΔGb,exp lookup, compound = c1cc2sccc2s1 [thieno[3,2-b]thiophene] , result: -4.67

====

Recorded measurements of ΔGb,exp, one per entry
# target_or_system: T4 lysozyme L99A/M102Q (Enterobacteria phage T4, UniProt P00720, C54T/C97A/L99A/M102Q)
# Assay type: binding
Field: numeric (kcal/mol). Do not append units.

molecule: Oc1ccccc1O [catechol, reference compound]
unit_of_measure: kcal/mol
ΔGb,exp: -4.16

molecule: CCc1ccccc1O
unit_of_measure: kcal/mol
ΔGb,exp: -4.57

molecule: Cc1ccc(Cl)cc1O
unit_of_measure: kcal/mol
ΔGb,exp: -5.04

Then this molecule:
// ΔGb,exp lookup, molecule = `CCOc1ccccc1O` , result: -4.02
